The measured values listed here are drawn from ChEMBL document CHEMBL2086331.

- EXPERIMENT SUMMARY: AUC in Wistar rat at 10 mg/kg, po
- Format: ADME, organism-based
- Parameters: dose 10 mg/kg, route oral
- CONDITION DETAILS: plasma
# reported AUC; entries follow
QUANTITY MEASURED: AUC (ng·h/mL)

SMILES STRING: Cc1ccc(C(=O)NC2CC2)cc1-c1ccn2c(C(C)(C)C)nnc2c1
QUANTITY MEASURED: AUC
NUMBER: 19400
--
SMILES STRING: Cc1c(F)cc(C(=O)NC2CC2)cc1-c1ccn2c(C(C)(C)C)nnc2c1
QUANTITY MEASURED: AUC
NUMBER: 17800
--
SMILES STRING: Cc1c(F)cc(C(=O)NC2CC2)cc1-c1c(F)cn2c(C(C)(C)C)nnc2c1F
QUANTITY MEASURED: AUC
NUMBER: 38600
